Source of measurements: the supplement of paper PMC7366291

- Tested on: Danio rerio Tg(wt1b:EGFP) embryo, pronephros
- procedure_details: glomerular width (mean of left and right), fold change vs DMSO control; higher = wider glomerulus
- assay_setup: 25 µM; exposure: 24-48 hpf
Where a name gives a salt, the structure may show the parent alone.
measured_parameter: glomerular width

1. N/C(=N\C(=O)c1nc(Cl)c(N)nc1N)NCc1ccccc1 [Benzamil hydrochloride]    1.05
2. O=C1NCCN1CCN1CCC(c2cn(-c3ccc(F)cc3)c3ccc(Cl)cc23)CC1    1.08
3. Oc1ncnc2[nH]ncc12    0.984
4. Cc1cccc(Nc2ccncc2S(=O)(=O)NC(=O)NC(C)C)c1 [Torsemide]    0.95
5. CN(C)CCc1c[nH]c2ccc(C[C@H]3COC(=O)N3)cc12    0.941
